B1: KRT34 (parent)
chain: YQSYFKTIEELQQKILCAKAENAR

Variants of: B1
PROTOCOL TEXT: protein stability index of a GFP-peptide fusion (GPS, HEK-293T) (PSI 1-6); higher = more stable;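 also: lentivirally expressed fusions sorted by FACS into six bins by GFP to DsRed ratio, PSI derived from sequencing read proportions per bin multiplied by bin number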
COND: c terminus: a fixed tail appended
RECORDED METRIC: protein stability index

query: Assign protein stability index to the following record: YQSYPKTIEELQQKILCAKAENAR [F5P]
result: 1.89

query: Input YQSYFKTAEELQQKILCAKAENAR [I8A] , output reported protein stability index.
result: 2.26

These measurements were taken from the supplement of paper PMC10567573.
